Reference source: ChEMBL document CHEMBL5528048

Entries annotated with measured Activity
targetEntity: Protein cereblon/Tyrosine-protein kinase BTK (Homo sapiens, UniProt Q06187+Q96SW2)
Sequence (Q06187 2-659 limits assumed): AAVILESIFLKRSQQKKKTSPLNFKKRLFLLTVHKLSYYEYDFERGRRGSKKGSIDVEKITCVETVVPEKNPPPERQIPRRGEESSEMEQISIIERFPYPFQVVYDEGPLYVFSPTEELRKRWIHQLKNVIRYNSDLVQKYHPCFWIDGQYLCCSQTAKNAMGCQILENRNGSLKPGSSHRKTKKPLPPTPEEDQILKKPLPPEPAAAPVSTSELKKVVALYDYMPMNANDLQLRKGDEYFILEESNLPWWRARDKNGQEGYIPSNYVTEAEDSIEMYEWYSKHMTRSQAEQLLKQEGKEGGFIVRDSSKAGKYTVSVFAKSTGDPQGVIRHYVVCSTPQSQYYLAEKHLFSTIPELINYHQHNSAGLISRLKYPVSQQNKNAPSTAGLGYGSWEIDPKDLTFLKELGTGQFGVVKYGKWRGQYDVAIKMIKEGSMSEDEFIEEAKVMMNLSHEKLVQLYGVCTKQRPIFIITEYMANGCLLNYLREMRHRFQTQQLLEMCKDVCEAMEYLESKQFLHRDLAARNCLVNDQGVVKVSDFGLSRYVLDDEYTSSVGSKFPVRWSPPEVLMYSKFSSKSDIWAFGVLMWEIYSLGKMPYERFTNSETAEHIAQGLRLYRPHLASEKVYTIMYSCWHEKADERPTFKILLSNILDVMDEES
Sequence (Q96SW2 whole entry partner): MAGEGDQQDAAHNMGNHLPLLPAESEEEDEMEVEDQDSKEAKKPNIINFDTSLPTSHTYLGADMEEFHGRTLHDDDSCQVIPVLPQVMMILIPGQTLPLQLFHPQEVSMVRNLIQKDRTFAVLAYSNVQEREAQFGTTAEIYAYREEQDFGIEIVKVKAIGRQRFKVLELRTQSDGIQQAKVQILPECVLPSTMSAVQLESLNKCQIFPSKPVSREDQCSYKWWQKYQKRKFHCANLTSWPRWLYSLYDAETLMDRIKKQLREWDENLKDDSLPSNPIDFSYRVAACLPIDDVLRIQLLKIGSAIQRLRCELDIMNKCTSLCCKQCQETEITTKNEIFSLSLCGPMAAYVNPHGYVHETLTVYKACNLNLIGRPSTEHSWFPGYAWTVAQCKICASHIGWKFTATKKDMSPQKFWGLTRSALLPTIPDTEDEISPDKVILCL
protocolDetails: PROTAC activity at BTK/CRBN in human MINO cells assessed as BTK protein degradation at 100 nM measured after 24 hrs by Western blotting analysis relative to control
Type: cell-based
assayMetric: Activity (%)

[[record]]
compound = "CC#CC(=O)Nc1cccc(Nc2nc(Nc3ccc(N4CCN(C5CN(c6ccc7c(c6)C(=O)N(C6CCC(=O)NC6=O)C7=O)C5)CC4)cc3)ncc2F)c1 (stereo not drawn)"
resultunit = "%"
resultvalue = 70

[[record]]
compound = "Cc1cc(-c2nc(Nc3cnn(C4CCN(CC5CCN(c6ccc7c(c6)C(=O)N(C6CCC(=O)NC6=O)C7=O)CC5)CC4)c3)ncc2F)ccc1CNC(=O)c1ccc(C(C)(C)C)cc1 (stereo not drawn)"
resultunit = "%"
resultvalue = 49

[[record]]
compound = "C#CC(=O)Nc1cccc(Nc2nc(Nc3ccc(N4CCN(C5CN(c6ccc7c(c6)C(=O)N(C6CCC(=O)NC6=O)C7=O)C5)CC4)cc3)ncc2F)c1 (stereo not drawn)"
resultunit = "%"
resultvalue = 54

